assay: Cytotoxicity against mock-infected BHK cells assessed as reduction in cell viability after 96 hrs by MTT assay; assay type: cell-based, Mesocricetus auratus; conditions: hamster
// NB: equality with 50 µM counts as not fulfilled; only CC50 at 96 h strictly below is fulfilled

Use the examples below as a reference point.
Smi: Clc1cccc(N2CCN(/C=C/N=N/c3ccccc3)CC2)c1
Group label: fulfilled
--
Smi: CN1C=C(/N=N/c2ccc(F)c(C(F)(F)F)c2)CCC1
Group label: not fulfilled
--
Smi: Cc1ccc(/N=N/C=C2\CCCN2C)cc1
Group label: not fulfilled

Is the reported CC50 at 96 h for `Clc1ccc(/N=N\C2=C3CCCN3CCC2)cc1` strictly below 50 µM?
fulfilled

Entry to check: `C(=C\N1CCSCC1)/N=N/c1ccccc1`
not fulfilled

Now give it for `CN1CCC/C1=C\N=N\c1cc(C(F)(F)F)cc(C(F)(F)F)c1` too.
fulfilled

Same thing, different molecule: `CN1CCC/C1=C\N=N\c1ccccc1`
not fulfilled

Request: `CN1CCC/C1=C\N=N\c1c(F)c(F)c(F)c(F)c1F`
not fulfilled

Try this molecule too: `O=[N+]([O-])c1ccc(/N=N\C2=C3CCCCN3CCC2)cc1`
not fulfilled

Item: `C(=C\N1CCCCC1)/N=N/c1ccccc1`
not fulfilled

Param item: `CN1CCC/C1=C\N=N\c1cccc([N+](=O)[O-])c1`
not fulfilled

Queued: `CN1C=C(/N=N/c2ccc(Br)cc2)CCC1`
not fulfilled

Can you handle `CN1C=C(/N=N/c2c(F)c(F)c(F)c(F)c2F)CCC1` next?
not fulfilled

Moving on to `Cc1ccc(/N=N/C=C2\CCCN2Cc2ccccc2)cc1`
fulfilled

Input `CN1C=C(/N=N/c2ccc(Cl)cc2)CCC1`
not fulfilled
